# Test description: in vivo
# Reported conditions: rat, plasma, iv, 0.03 mg, Plasma Level, 30 μg/rat, 180 min, individual rats I, II, III
Assay endpoint: concentration at 3 h (ng/mL)
Field: numeric (ng/mL). Do not append units.

Problem: // returns reported concentration at 3 h for input C=CCN1CC[C@]23c4c5ccc(O)c4O[C@H]2C(=O)CC[C@@]3(O)[C@H]1C5 [naloxone]
Result: 1.25

###

# Test description: in vivo
# Reported conditions: rat, plasma, iv, 0.03 mg, Plasma Level, Mean, 30 μg/rat, 1 min, mean of 3 rats
Assay endpoint: concentration at 1 min

Problem: // returns reported concentration at 1 min for input "C=CCN1CC[C@]23c4c5ccc(O)c4O[C@H]2C(=O)CC[C@@]3(O)[C@H]1C5"
Result: 111 ng/mL

###

# Test description: in vivo
# Reported conditions: rat, plasma, iv, 0.03 mg, Plasma Level, 30 μg/rat, 5 min, individual rats I, II, III
Assay endpoint: concentration at 5 min
Answer with the number, then the unit.

Problem: // returns reported concentration at 5 min for input C=CCN1CC[C@]23c4c5ccc(O)c4O[C@H]2C(=O)CC[C@@]3(O)[C@H]1C5 [naloxone]
Result: 31.4 ng/mL

###

# Test description: in vivo
# Reported conditions: rat, plasma, 0.03 mg, Plasma Level, nasal, 30 μg/rat, 30 min, individual rats I, II, III
Assay endpoint: concentration at 0.5 h (ng/mL)
Field: numeric (ng/mL). Do not append units.

Problem: // returns reported concentration at 0.5 h for input C=CCN1CC[C@]23c4c5ccc(O)c4O[C@H]2C(=O)CC[C@@]3(O)[C@H]1C5 [naloxone]
Result: 13.5

###

# Test description: in vivo
# Reported conditions: rat, plasma, iv, 0.03 mg, Plasma Level, 30 μg/rat, 20 min, individual rats I, II, III
Assay endpoint: concentration at 20 min (ng/mL)
Field: numeric (ng/mL). Do not append units.

Problem: // returns reported concentration at 20 min for input "C=CCN1CC[C@]23c4c5ccc(O)c4O[C@H]2C(=O)CC[C@@]3(O)[C@H]1C5"
Result: 10.3

###

# Test description: in vivo
# Reported conditions: rat, plasma, iv, 0.03 mg, Plasma Level, Mean, 30 μg/rat, 180 min, mean of 3 rats
Assay endpoint: concentration at 3 h (ng/mL)
Field: numeric (ng/mL). Do not append units.

Problem: // returns reported concentration at 3 h for input C=CCN1CC[C@]23c4c5ccc(O)c4O[C@H]2C(=O)CC[C@@]3(O)[C@H]1C5 [naloxone]
Result: 1.47

###

# Test description: in vivo
# Reported conditions: rat, plasma, iv, 0.03 mg, Plasma Level, Mean, 30 μg/rat, 45 min, mean of 3 rats
Assay endpoint: concentration at 0.75 h (ng/mL)
Field: numeric (ng/mL). Do not append units.

Problem: // returns reported concentration at 0.75 h for input C=CCN1CC[C@]23c4c5ccc(O)c4O[C@H]2C(=O)CC[C@@]3(O)[C@H]1C5 [naloxone]
Result: 6.74

###

# Test description: in vivo
# Reported conditions: rat, plasma, iv, 0.03 mg, Plasma Level, Mean, 30 μg/rat, 30 min, mean of 3 rats
Assay endpoint: concentration at 0.5 h (ng/mL)
Field: numeric (ng/mL). Do not append units.

Problem: // returns reported concentration at 0.5 h for input "C=CCN1CC[C@]23c4c5ccc(O)c4O[C@H]2C(=O)CC[C@@]3(O)[C@H]1C5"
Result: 8.34
